Each entry below carries its recorded IC50.
# Test system: NCl cell panel
# experimental protocol: Cytotoxicity, MTT assay
# reported conditions: read-out: cytotoxieity NCl cell panel IC50; 2 day MTT assay, mean of 60 cell lines

| compound | result units | IC50 |
| --- | --- | --- |
| COC[C@H]1OC(=O)/C(=C/NC(C)C(=O)O)C2=C(O)C(=O)C3=C([C@H](OC(C)=O)C[C@]4(C)C(=O)CC[C@@H]34)[C@]21C (stereo partly drawn) [DJM2-177] | µM | 10.2 |
| COC[C@H]1OC(=O)/C(=C/NCC(N)=O)C2=C(O)C(=O)C3=C([C@H](OC(C)=O)C[C@]4(C)C(=O)CC[C@@H]34)[C@]21C [DJM2-190] | µM | 33 |
| COC[C@H]1OC(=O)/C(=C/SCc2ccccc2)C2=C(O)C(=O)C3=C([C@H](OC(C)=O)C[C@]4(C)C(=O)CC[C@@H]34)[C@]21C [DJM2-170] | µM | 7.1 |
